These data points were gathered from the Immune Epitope Database (IEDB).

# SYSTEM TESTED: HLA-B*58:01
# EXPERIMENTAL PROTOCOL: IEDB peptide-MHC binding, purified MHC/direct/fluorescence; filed as Kd, often an IC50 or EC50 that approximates it; bounds were set here for any values at or beyond the usual limits of such assays
# EXPERIMENTAL CONDITIONS: source organism: Vibrio vulnificus CMCP6
ENDPOINT LABEL: Kd
Please make sure the unit comes right after the number.

Would you mind telling me what Kd value was observed for "TTILGLLPM" ?
329 nM

----------
# SYSTEM TESTED: HLA-B*15:17
# EXPERIMENTAL PROTOCOL: IEDB peptide-MHC binding, purified MHC/direct/fluorescence; filed as Kd, often an IC50 or EC50 that approximates it; bounds were set here for any values at or beyond the usual limits of such assays
# EXPERIMENTAL CONDITIONS: source organism: Burkholderia mallei
ENDPOINT LABEL: Kd

I'm curious: which Kd was measured for "FEIGNGDAG" tested on HLA-B*15:17?
≥ 20 µM
